assay: Plasma concentrations and pharmacokinetics after intravenous bolus of C3G (NCA and two-compartment model); type: in vivo, Wistar rats; details: male, Wistar, rat, plasma, iv; 20 min after i.v. 668 nmol C3G, mean ± SEM n=4
Assay metric: concentration at 20 min (nM)

A. COc1cc(-c2[o+]c3cc(O)cc(O)c3cc2O[C@@H]2O[C@H](CO)[C@@H](O)[C@H](O)[C@H]2O)ccc1O [PN3G, Peonidin-3-O-β-glucoside]
B. OC[C@H]1O[C@@H](Oc2cc3c(O)cc(O)cc3[o+]c2-c2ccc(O)cc2)[C@H](O)[C@@H](O)[C@@H]1O [PG3G, Pelargonidin-3-O-β-glucoside]
C. OC[C@H]1O[C@@H](Oc2cc3c(O)cc(O)cc3[o+]c2-c2ccc(O)c(O)c2)[C@H](O)[C@@H](O)[C@@H]1O [C3G, Cyanidin-3-O-β-glucoside]
D. COc1cc(-c2[o+]c3cc(O)cc(O)c3cc2O[C@@H]2O[C@H](CO)[C@@H](O)[C@H](O)[C@H]2O)cc(OC)c1O [M3G, Malvidin-3-O-β-glucoside]
Request: Sort key: concentration at 20 min. Order: high to low. Scope: items listed above. Your task in answering is to list the labels in the requested order.
Result: C, D, A, B
(C: 18.8 nM, D: 8.6 nM, A: 3.4 nM, B: 1.55 nM)

----------
experiment: Plasma concentrations and pharmacokinetics after intravenous bolus of C3G (NCA and two-compartment model); assay type: in vivo, Wistar rats; details: male, Wistar, rat, plasma, iv, 668 nmol, two-compartment model analysis; read-out: t1/2d (distribution half-life)
Assay metric: half-life (s)
# output: bare number, implied unit s

Request: Indicate the recorded half-life value for this compound: OC[C@H]1O[C@@H](Oc2cc3c(O)cc(O)cc3[o+]c2-c2ccc(O)c(O)c2)[C@H](O)[C@@H](O)[C@@H]1O [C3G, Cyanidin-3-O-β-glucoside]
Result: 18

----------
assay: Plasma concentrations and pharmacokinetics after intravenous bolus of C3G (NCA and two-compartment model); format: in vivo, Wistar rats; conditions: male, Wistar, rat, plasma, intravenous, 668 nmol, two-compartment model analysis; read-out: MRT (converted)
Assay metric: MRT (min)
Report as a plain number; the unit min is understood.

Request: Indicate its recorded MRT; the compound in question is OC[C@H]1O[C@@H](Oc2cc3c(O)cc(O)cc3[o+]c2-c2ccc(O)c(O)c2)[C@H](O)[C@@H](O)[C@@H]1O [C3G, Cyanidin-3-O-β-glucoside]
Result: 9.21

----------
assay: Plasma concentrations and pharmacokinetics after intravenous bolus of C3G (NCA and two-compartment model); format: in vivo, Wistar rats; settings: male, Wistar, rat, plasma, iv; 2 min after i.v. 668 nmol C3G, mean ± SEM n=4
Assay metric: concentration at 2 min (nM)

P. COc1cc(-c2[o+]c3cc(O)cc(O)c3cc2O[C@@H]2O[C@H](CO)[C@@H](O)[C@H](O)[C@H]2O)cc(OC)c1O [M3G, Malvidin-3-O-β-glucoside]
Q. OC[C@H]1O[C@@H](Oc2cc3c(O)cc(O)cc3[o+]c2-c2cc(O)c(O)c(O)c2)[C@H](O)[C@@H](O)[C@@H]1O [D3G, Delphinidin-3-O-β-glucoside]
R. OC[C@H]1O[C@@H](Oc2cc3c(O)cc(O)cc3[o+]c2-c2ccc(O)cc2)[C@H](O)[C@@H](O)[C@@H]1O [PG3G, Pelargonidin-3-O-β-glucoside]
Request: Please produce an ascending ranking of these compounds based on concentration at 2 min. Note for the reader: the ranking is given by listing the labels in the order requested.
Result: R, Q, P
